conditions: in isopropanol, 320.25 K
measurement name: solubility (mole fraction)

Enquiry: I would be grateful if you could share the reported solubility (mole fraction) for CC(=O)Nc1ccc(O)cc1 .
Return: 0.0696

* * *

conditions: in isopropanol, 343.45 K
measurement name: solubility (mole fraction)

Enquiry: I would be grateful if you could share the reported solubility (mole fraction) for CC(=O)Nc1ccc(O)cc1 .
Return: 0.121

* * *

settings: in n-propanol, 342.15 K
measurement name: solubility (mole fraction)
Keep the answer to the number alone.

Enquiry: I would be grateful if you could share the reported solubility (mole fraction) for CC(=O)Nc1ccc(O)cc1 .
Return: 0.117

* * *

conditions: in isopropanol, 330.25 K
measurement name: solubility (mole fraction)

Enquiry: I would be grateful if you could share the reported solubility (mole fraction) for CC(=O)Nc1ccc(O)cc1 .
Return: 0.0876

* * *

details: in ethanol, 305.35 K
measurement name: solubility (mole fraction)
Keep the answer to the number alone.

Enquiry: I would be grateful if you could share the reported solubility (mole fraction) for CC(=O)Nc1ccc(O)cc1 .
Return: 0.0662

* * *

details: in n-pentanol, 343.55 K
measurement name: solubility (mole fraction)
Keep the answer to the number alone.

Enquiry: I would be grateful if you could share the reported solubility (mole fraction) for CC(=O)Nc1ccc(O)cc1 .
Return: 0.0893

* * *

settings: in ethanol, 322.15 K
measurement name: solubility (mole fraction)
Keep the answer to the number alone.

Enquiry: I would be grateful if you could share the reported solubility (mole fraction) for CC(=O)Nc1ccc(O)cc1 .
Return: 0.0898

* * *

conditions: in n-butanol, 323.05 K
measurement name: solubility (mole fraction)

Enquiry: I would be grateful if you could share the reported solubility (mole fraction) for CC(=O)Nc1ccc(O)cc1 .
Return: 0.0659

* * *

conditions: in n-pentanol, 353.75 K
measurement name: solubility (mole fraction)

Enquiry: I would be grateful if you could share the reported solubility (mole fraction) for CC(=O)Nc1ccc(O)cc1 .
Return: 0.108

* * *

details: in n-pentanol, 323.65 K
measurement name: solubility (mole fraction)
Keep the answer to the number alone.

Enquiry: I would be grateful if you could share the reported solubility (mole fraction) for CC(=O)Nc1ccc(O)cc1 .
Return: 0.0571

* * *

details: in n-butanol, 293.05 K
measurement name: solubility (mole fraction)
Keep the answer to the number alone.

Enquiry: I would be grateful if you could share the reported solubility (mole fraction) for CC(=O)Nc1ccc(O)cc1 .
Return: 0.0364

* * *

conditions: in n-butanol, 362.65 K
measurement name: solubility (mole fraction)
Keep the answer to the number alone.

Enquiry: I would be grateful if you could share the reported solubility (mole fraction) for CC(=O)Nc1ccc(O)cc1 .
Return: 0.152

* * *

conditions: in n-butanol, 312.55 K
measurement name: solubility (mole fraction)

Enquiry: I would be grateful if you could share the reported solubility (mole fraction) for CC(=O)Nc1ccc(O)cc1 .
Return: 0.0526

* * *

details: in methanol, 303.55 K
measurement name: solubility (mole fraction)

Enquiry: I would be grateful if you could share the reported solubility (mole fraction) for CC(=O)Nc1ccc(O)cc1 .
Return: 0.073

* * *

details: in ethanol, 360.15 K
measurement name: solubility (mole fraction)

Enquiry: I would be grateful if you could share the reported solubility (mole fraction) for CC(=O)Nc1ccc(O)cc1 .
Return: 0.216

* * *

details: in methanol, 341.55 K
measurement name: solubility (mole fraction)

Enquiry: I would be grateful if you could share the reported solubility (mole fraction) for CC(=O)Nc1ccc(O)cc1 .
Return: 0.175

* * *

details: in methanol, 323.35 K
measurement name: solubility (mole fraction)

Enquiry: I would be grateful if you could share the reported solubility (mole fraction) for CC(=O)Nc1ccc(O)cc1 .
Return: 0.111

* * *

settings: in methanol, 293.45 K
measurement name: solubility (mole fraction)
Keep the answer to the number alone.

Enquiry: I would be grateful if you could share the reported solubility (mole fraction) for CC(=O)Nc1ccc(O)cc1 .
Return: 0.0594

* * *

details: in n-butanol, 343.65 K
measurement name: solubility (mole fraction)
Keep the answer to the number alone.

Enquiry: I would be grateful if you could share the reported solubility (mole fraction) for CC(=O)Nc1ccc(O)cc1 .
Return: 0.099

* * *

conditions: in n-pentanol, 303.55 K
measurement name: solubility (mole fraction)
Keep the answer to the number alone.

Enquiry: I would be grateful if you could share the reported solubility (mole fraction) for CC(=O)Nc1ccc(O)cc1 .
Return: 0.038

* * *

conditions: in isopropanol, 313.05 K
measurement name: solubility (mole fraction)

Enquiry: I would be grateful if you could share the reported solubility (mole fraction) for CC(=O)Nc1ccc(O)cc1 .
Return: 0.0604

* * *

details: in ethanol, 332.95 K
measurement name: solubility (mole fraction)
Keep the answer to the number alone.

Enquiry: I would be grateful if you could share the reported solubility (mole fraction) for CC(=O)Nc1ccc(O)cc1 .
Return: 0.116

* * *

conditions: in acetone, 320.65 K
measurement name: solubility (mole fraction)

Enquiry: I would be grateful if you could share the reported solubility (mole fraction) for CC(=O)Nc1ccc(O)cc1 .
Return: 0.068

* * *

settings: in n-pentanol, 313.85 K
measurement name: solubility (mole fraction)
Keep the answer to the number alone.

Enquiry: I would be grateful if you could share the reported solubility (mole fraction) for CC(=O)Nc1ccc(O)cc1 .
Return: 0.0468

* * *

details: in n-propanol, 312.55 K
measurement name: solubility (mole fraction)
Keep the answer to the number alone.

Enquiry: I would be grateful if you could share the reported solubility (mole fraction) for CC(=O)Nc1ccc(O)cc1 .
Return: 0.061

* * *

settings: in ethanol, 350.05 K
measurement name: solubility (mole fraction)

Enquiry: I would be grateful if you could share the reported solubility (mole fraction) for CC(=O)Nc1ccc(O)cc1 .
Return: 0.18

* * *

conditions: in n-propanol, 332.25 K
measurement name: solubility (mole fraction)
Keep the answer to the number alone.

Enquiry: I would be grateful if you could share the reported solubility (mole fraction) for CC(=O)Nc1ccc(O)cc1 .
Return: 0.093

* * *

settings: in methanol, 354.15 K
measurement name: solubility (mole fraction)

Enquiry: I would be grateful if you could share the reported solubility (mole fraction) for CC(=O)Nc1ccc(O)cc1 .
Return: 0.229

* * *

details: in ethanol, 314.15 K
measurement name: solubility (mole fraction)
Keep the answer to the number alone.

Enquiry: I would be grateful if you could share the reported solubility (mole fraction) for CC(=O)Nc1ccc(O)cc1 .
Return: 0.0737

* * *

conditions: in n-pentanol, 361.55 K
measurement name: solubility (mole fraction)

Enquiry: I would be grateful if you could share the reported solubility (mole fraction) for CC(=O)Nc1ccc(O)cc1 .
Return: 0.129

* * *

conditions: in n-butanol, 332.55 K
measurement name: solubility (mole fraction)
Keep the answer to the number alone.

Enquiry: I would be grateful if you could share the reported solubility (mole fraction) for CC(=O)Nc1ccc(O)cc1 .
Return: 0.0792

* * *

conditions: in acetone, 292.95 K
measurement name: solubility (mole fraction)

Enquiry: I would be grateful if you could share the reported solubility (mole fraction) for CC(=O)Nc1ccc(O)cc1 .
Return: 0.0327

* * *

conditions: in acetone, 311.95 K
measurement name: solubility (mole fraction)
Keep the answer to the number alone.

Enquiry: I would be grateful if you could share the reported solubility (mole fraction) for CC(=O)Nc1ccc(O)cc1 .
Return: 0.0534
